- assayed_target: UniProt D0V558
- Sequence (D0V558 entry or part of it): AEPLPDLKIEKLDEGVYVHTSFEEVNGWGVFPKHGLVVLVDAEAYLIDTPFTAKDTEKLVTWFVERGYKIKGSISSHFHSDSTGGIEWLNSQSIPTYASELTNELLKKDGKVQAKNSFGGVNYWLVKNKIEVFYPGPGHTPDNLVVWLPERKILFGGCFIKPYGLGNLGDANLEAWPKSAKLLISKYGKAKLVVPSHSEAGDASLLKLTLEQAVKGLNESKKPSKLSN
- test_description: IC50, inhibition of cephalothin hydrolysis
- Format: biochemical
property: pIC50
Friendly reminder that pIC50 comes from taking -log10 of the concentration in mol/L.

I have this compound here, `O=C(O)c1c(F)ccc2c1OB(O)[C@@H]1C[C@H]21` , and I need its recorded pIC50.
4.11

----------
- assayed_target: IMP-59 (Escherichia coli)
- test_description: IC50, inhibition of cephalothin hydrolysis
- Assay type: biochemical
property: IC50 (µM)
Form entry: value (µM) — number only.

I'm curious: which IC50 was measured for `O=C(O)c1c(F)ccc2c1OB(O)[C@@H]1C[C@H]21` tested on IMP-59 (Escherichia coli)?
10.3

----------
Provide the recorded IC50 for the entries that follow.
- Test system: IMP-14 D227Y
- test_description: IC50, inhibition of cephalothin hydrolysis
- Type: biochemical
- measurement_setup: crude enzyme extract, 100 µM cephalothin, 3 min pre-incubation; read-out: IC50 against IMP-14 D227Y
Quick note: give the figure in µM, leave out the unit.

Fill in: IC50 of `NCCN[C@H]1CC[C@H](CC(=O)N[C@H]2Cc3cccc(C(=O)O)c3OB2O)CC1` is ___
204

Query: IC50; subject: `O=C(O)c1c(F)ccc2c1OB(O)[C@@H]1C[C@H]21`
250
